# Ki per entry
Molecular target: Progesterone receptor (Homo sapiens)
Sequence (P06401 whole entry): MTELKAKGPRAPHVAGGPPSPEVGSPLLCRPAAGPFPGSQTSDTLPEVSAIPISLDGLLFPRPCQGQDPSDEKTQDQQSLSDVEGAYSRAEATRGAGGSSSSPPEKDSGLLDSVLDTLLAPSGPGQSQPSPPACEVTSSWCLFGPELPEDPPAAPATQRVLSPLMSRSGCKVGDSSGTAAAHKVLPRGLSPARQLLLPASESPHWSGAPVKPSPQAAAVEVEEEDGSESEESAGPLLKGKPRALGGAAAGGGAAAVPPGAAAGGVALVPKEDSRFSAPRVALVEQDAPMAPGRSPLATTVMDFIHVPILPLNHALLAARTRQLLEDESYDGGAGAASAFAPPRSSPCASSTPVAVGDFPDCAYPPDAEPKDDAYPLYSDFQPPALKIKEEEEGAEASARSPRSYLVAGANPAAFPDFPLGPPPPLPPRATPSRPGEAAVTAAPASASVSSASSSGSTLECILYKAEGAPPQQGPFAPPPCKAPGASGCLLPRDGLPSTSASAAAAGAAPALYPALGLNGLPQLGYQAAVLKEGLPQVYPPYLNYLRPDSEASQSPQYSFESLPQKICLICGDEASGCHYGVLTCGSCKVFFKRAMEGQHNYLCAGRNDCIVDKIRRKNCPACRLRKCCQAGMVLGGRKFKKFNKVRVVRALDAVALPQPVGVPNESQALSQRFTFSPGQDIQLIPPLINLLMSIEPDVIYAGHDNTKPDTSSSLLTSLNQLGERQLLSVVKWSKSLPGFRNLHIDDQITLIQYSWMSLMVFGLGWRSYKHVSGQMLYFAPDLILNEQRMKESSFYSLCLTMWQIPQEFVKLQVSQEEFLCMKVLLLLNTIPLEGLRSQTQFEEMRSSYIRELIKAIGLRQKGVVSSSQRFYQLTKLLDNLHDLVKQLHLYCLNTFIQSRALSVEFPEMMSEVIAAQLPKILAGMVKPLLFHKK

Compound	Experimental target	Ki [nM]
C#C[C@]1(O)CC[C@H]2[C@@H]3CCC4=CC(=O)CCC4=C3[C@@H](c3ccc(N(C)CCCOC4CC[C@@]5(C)[C@@H](C4)C[C@@H](O)[C@@H]4[C@@H]5C[C@H](O)[C@]5(C)[C@@H]([C@H](C)CCC(=O)O)CC[C@@H]45)cc3)C[C@@]21C (some centres undefined)	Progesterone receptor (Homo sapiens)	1.1
C#C[C@]1(O)CC[C@H]2[C@@H]3CCC4=CC(=O)CCC4=C3[C@@H](c3ccc(N(C)CCNC(=O)OC4CC[C@@]5(C)[C@@H](C4)C[C@@H](O)[C@@H]4[C@@H]5C[C@H](O)[C@]5(C)[C@@H]([C@H](C)CCC(=O)O)CC[C@@H]45)cc3)C[C@@]21C (some centres undefined)	Progesterone receptor (Homo sapiens)	0.39
C#C[C@]1(O)CC[C@H]2[C@@H]3CCC4=CC(=O)CCC4=C3[C@@H](c3ccc(N(C)C(C)=O)cc3)C[C@@]21C	Progesterone receptor (Homo sapiens)	6.4
C#C[C@]1(O)CC[C@H]2[C@@H]3CCC4=CC(=O)CCC4=C3[C@@H](c3ccc(N(C)CCNC(=O)N(C)C4CC[C@@]5(C)[C@@H](C4)C[C@@H](O)[C@@H]4[C@@H]5C[C@H](O)[C@]5(C)[C@@H]([C@H](C)CCC(=O)O)CC[C@@H]45)cc3)C[C@@]21C (some centres undefined)	Progesterone receptor (Homo sapiens)	3.5

---

Target sequence: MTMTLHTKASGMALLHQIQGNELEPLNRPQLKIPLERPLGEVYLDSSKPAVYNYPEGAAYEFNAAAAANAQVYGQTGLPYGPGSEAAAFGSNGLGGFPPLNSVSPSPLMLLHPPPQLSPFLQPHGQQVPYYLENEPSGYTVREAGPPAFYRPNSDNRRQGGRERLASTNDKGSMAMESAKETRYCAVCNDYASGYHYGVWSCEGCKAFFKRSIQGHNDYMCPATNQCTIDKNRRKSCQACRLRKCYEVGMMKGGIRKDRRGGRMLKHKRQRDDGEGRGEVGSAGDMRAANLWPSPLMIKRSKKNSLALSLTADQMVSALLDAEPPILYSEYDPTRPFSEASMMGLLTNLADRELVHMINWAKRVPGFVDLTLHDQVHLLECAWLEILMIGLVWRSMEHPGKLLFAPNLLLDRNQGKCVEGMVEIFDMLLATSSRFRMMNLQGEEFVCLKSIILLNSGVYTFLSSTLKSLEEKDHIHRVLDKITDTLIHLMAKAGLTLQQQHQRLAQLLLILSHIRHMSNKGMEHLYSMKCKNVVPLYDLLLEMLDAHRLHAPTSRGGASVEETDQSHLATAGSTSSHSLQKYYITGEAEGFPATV
# Ki per entry
Assay endpoint: Ki (nM)

Molecule	Unit label	Assay value
C#C[C@]1(O)CC[C@H]2[C@@H]3CCC4=CC(=O)CCC4=C3[C@@H](c3ccc(N(C)CCCOC4CC[C@@]5(C)[C@@H](C4)C[C@@H](O)[C@@H]4[C@@H]5C[C@H](O)[C@]5(C)[C@@H]([C@H](C)CCC(=O)O)CC[C@@H]45)cc3)C[C@@]21C (some centres not stated)	nM	8.8
C#C[C@]1(O)CC[C@H]2[C@@H]3CCC4=CC(=O)CCC4=C3[C@@H](c3ccc(N(C)CCCS(=O)(=O)N(C)C4CC[C@@]5(C)[C@@H](C4)C[C@@H](O)[C@@H]4[C@@H]5C[C@H](O)[C@]5(C)[C@@H]([C@H](C)CCC(=O)O)CC[C@@H]45)cc3)C[C@@]21C (some centres not stated)	nM	19

---

target: Estrogen receptor (Homo sapiens)

Molecule	Unit label	Ki
C#C[C@]1(O)CC[C@H]2[C@@H]3CCC4=CC(=O)CCC4=C3[C@@H](c3ccc(N(C)CCOC4CC[C@@]5(C)[C@@H](C4)C[C@@H](O)[C@@H]4[C@@H]5C[C@H](O)[C@]5(C)[C@@H]([C@H](C)CCC(=O)NCCS(=O)(=O)O)CC[C@@H]45)cc3)C[C@@]21C (some centres not stated)	nM	10
C#C[C@]1(O)CC[C@H]2[C@@H]3CCC4=CC(=O)CCC4=C3[C@@H](c3ccc(N(C)CCC[C@H]4[C@H](O)CC[C@@]5(C)[C@@H]4C[C@@H](O)[C@@H]4[C@@H]5C[C@H](O)[C@]5(C)[C@@H]([C@H](C)CCC(=O)O)CC[C@@H]45)cc3)C[C@@]21C	nM	46

---

biological target: Glucocorticoid receptor (Rattus norvegicus); assay: Inhibition of glucocorticoid receptor mediated tyrosine aminotransferase activity; parameters: concentration or dose not given beside the values; details: concentration not given here
# inhibition per entry
Assay endpoint: inhibition (%)

Compound	Experimental target	Assay endpoint	Assay value
C#C[C@]1(O)CC[C@H]2[C@@H]3CCC4=CC(=O)CCC4=C3[C@@H](c3ccc(N(C)CCOC4CC[C@@]5(C)[C@@H](C4)C[C@@H](O)[C@@H]4[C@@H]5C[C@H](O)[C@]5(C)[C@@H]([C@H](C)CCC(=O)O)CC[C@@H]45)cc3)C[C@@]21C (stereo in doubt; form 2)	Glucocorticoid receptor (Rattus norvegicus)	inhibition	72
CC#C[C@]1(O)CC[C@H]2[C@@H]3CCC4=CC(=O)CC[C@]4(Cc4ccc(CCCO[C@H]5CC[C@@]6(C)[C@@H](C5)C[C@@H](O)[C@@H]5[C@@H]6C[C@H](O)[C@]6(C)[C@@H]([C@H](C)CCC(=O)O)CC[C@@H]56)cc4)C3=CC[C@@]21C	Glucocorticoid receptor (Rattus norvegicus)	inhibition	5
C#C[C@]1(O)CC[C@H]2[C@@H]3CCC4=CC(=O)CCC4=C3[C@@H](c3ccc(N(C)CCC[C@@]4(O)CC[C@@]5(C)[C@H](C[C@@H](O)[C@@H]6[C@@H]5C[C@H](O)[C@]5(C)[C@@H]([C@H](C)CCC(=O)O)CC[C@@H]65)C4)cc3)C[C@@]21C	Glucocorticoid receptor (Rattus norvegicus)	inhibition	6

---

target: Glucocorticoid receptor (Homo sapiens); experiment: Inhibition of glucocorticoid receptor dependent alkaline phosphatase activity; format: functional
Sequence (P04150 whole entry): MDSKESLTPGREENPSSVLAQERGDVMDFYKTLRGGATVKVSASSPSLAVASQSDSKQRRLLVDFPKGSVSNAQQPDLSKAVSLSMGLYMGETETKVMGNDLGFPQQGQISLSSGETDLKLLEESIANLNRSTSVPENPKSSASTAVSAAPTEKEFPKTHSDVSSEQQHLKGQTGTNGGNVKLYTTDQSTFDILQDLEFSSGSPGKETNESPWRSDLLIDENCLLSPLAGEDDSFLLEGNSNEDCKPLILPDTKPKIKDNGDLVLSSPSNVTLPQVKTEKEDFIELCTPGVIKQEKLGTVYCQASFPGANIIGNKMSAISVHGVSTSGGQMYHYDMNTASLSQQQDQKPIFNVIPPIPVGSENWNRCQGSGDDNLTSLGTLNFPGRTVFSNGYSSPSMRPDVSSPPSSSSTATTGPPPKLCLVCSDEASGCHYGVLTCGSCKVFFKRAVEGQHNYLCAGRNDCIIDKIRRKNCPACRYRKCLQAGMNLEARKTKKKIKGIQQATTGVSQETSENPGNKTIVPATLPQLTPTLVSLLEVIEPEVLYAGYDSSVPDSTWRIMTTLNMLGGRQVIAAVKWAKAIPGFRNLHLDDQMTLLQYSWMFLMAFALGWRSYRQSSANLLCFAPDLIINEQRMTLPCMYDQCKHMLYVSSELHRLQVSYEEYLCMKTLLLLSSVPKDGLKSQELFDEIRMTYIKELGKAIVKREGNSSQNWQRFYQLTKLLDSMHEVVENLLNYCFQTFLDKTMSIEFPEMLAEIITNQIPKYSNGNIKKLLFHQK
pKi: −log10 of the molar value.
Assay endpoint: pKi

Compound	Assay value
C#C[C@]1(O)CC[C@H]2[C@@H]3CCC4=CC(=O)CCC4=C3[C@@H](c3ccc(N(C)CCOC4CC[C@@]5(C)[C@@H](C4)C[C@@H](O)[C@@H]4[C@@H]5CC[C@]5(C)[C@@H]([C@H](C)CCC(=O)O)CC[C@@H]45)cc3)C[C@@]21C (some centres undefined)	9.12
C#C[C@]1(O)CC[C@H]2[C@@H]3CCC4=CC(=O)CCC4=C3[C@@H](c3ccc(N(C)CCNC(=O)N(C)C4CC[C@@]5(C)[C@@H](C4)C[C@@H](O)[C@@H]4[C@@H]5C[C@H](O)[C@]5(C)[C@@H]([C@H](C)CCC(=O)O)CC[C@@H]45)cc3)C[C@@]21C (some centres undefined)	7.82
C#C[C@]1(O)CC[C@H]2[C@@H]3CCC4=CC(=O)CCC4=C3[C@@H](c3ccc(N(C)C(=O)CNC(=O)O[C@@H]4C[C@@H]5CC(O)CC[C@]5(C)[C@H]5C[C@H](O)[C@]6(C)[C@@H]([C@H](C)CCC(=O)O)CC[C@H]6[C@H]45)cc3)C[C@@]21C (some centres undefined)	7.31
C#C[C@]1(O)CC[C@H]2[C@@H]3CCC4=CC(=O)CCC4=C3[C@@H](c3ccc(N(C)CCOC4CC[C@@]5(C)[C@@H](C4)C[C@@H](O)[C@@H]4[C@@H]5C[C@H](O)[C@]5(C)[C@@H]([C@H](C)CCC(=O)NCC(=O)O)CC[C@@H]45)cc3)C[C@@]21C (some centres undefined)	8.07
